Molecular target: NYAD-36
Assay: ITC
Details: both partners purified
Where no end group is shown, it is not given here.
endpoint: Kd (nM)
Quick note: give the figure in nM, leave out the unit.

Entry CTRPNYNKRKRIHIGPGRAFYTTKNIIGTIRQAHC (also: cyclic (mode not given here)) [full-length cyclic V3 loop peptide] ; Kd = 350
